pKi: −log10 of the molar value.
Recorded pKi for compounds tested on Carbonic anhydrase 9 (Homo sapiens), drawn from a number of studies.
MEASUREMENT KIND: pKi

COMPOUND	pKi
Nc1nc(Cn2ccc(=O)c(S(N)(=O)=O)c2)nc(N2CCOCC2)n1	7.14

[1] COc1cc2c(cc1OC)C(c1ccc(S(N)(=O)=O)cc1)N(S(N)(=O)=O)CC2 (stereo not drawn)
[2] CC1=NN(c2ccc(Cl)cc2Cl)C(=O)/C1=N/Nc1cccc(S(N)(=O)=O)c1
# input Between the entries labeled 1 and 2 , whose measured pKi is lower? In your reply, give the label of the chosen option.
# output 2
(2: 6.80, 1: 7.12)
